- Tested on: ATP;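 also: ATP exposure 15 min at 22 °C before imaging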
- assayInfo: switch fluorescence ratio, 500 uM ATP over buffer (Cy3 cluster intensity, sum of 5 cycles each) (fold (ratio)); higher = stronger signal-on switching upon ATP binding; sequences stand for … in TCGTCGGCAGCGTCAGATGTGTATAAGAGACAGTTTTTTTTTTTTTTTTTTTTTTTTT…TC
- conditionParameters: aptamer strand: ATP DNA aptamer (quencher-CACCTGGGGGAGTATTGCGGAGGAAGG + anchor), 100 nM annealed; ATP concentration: 500 uM
Listing: switch fluorescence ratio of selected sequences
Would you mind answering with just the numeric figure?

Could you please provide reported switch fluorescence ratio for "GTTAGATTGA" ? Thanks! 0.96

Could you please provide reported switch fluorescence ratio for "TAATGGGGTT" ? Thanks! 1

Could you please provide reported switch fluorescence ratio for "GAGGGTATTA" ? Thanks! 1.02

Could you please provide reported switch fluorescence ratio for "GGAGAGTGGT" ? Thanks! 1.02

Could you please provide reported switch fluorescence ratio for "AGGAGCAGCG" ? Thanks! 0.919

Could you please provide reported switch fluorescence ratio for "ACTCAGACCT" ? Thanks! 1.3
